target: partially purified or recombinant PDE4; assay: Inhibition of phosphodiesterase 4 in vitro
reported.endpoint: IC50 (µM)

>  <molecule>
Cc1ccc(-c2cc(C(F)(F)F)nn2-c2ccc(S(N)(=O)=O)cc2)cc1

>  <reported>
6

$$$$
>  <molecule>
CS(=O)(=O)Nc1cc2c(cc1Sc1ccc(F)cc1F)C(=O)CC2

>  <reported>
31

$$$$

1: CS(=O)(=O)Nc1ccc([N+](=O)[O-])cc1Oc1ccccc1 [Nimesulide, 4′-nitro-2′-phenoxymethansulfonamide]
2: CS(=O)(=O)Nc1cc2c(cc1Oc1ccc(F)cc1F)C(=O)CC2
Ask: Which of the two items, 1 and 2 , has the greater recorded IC50? Reply briefly: the label of your chosen item.
Reply: 1

* * *

molecular target: partially purified or recombinant PDE5 (Homo sapiens, UniProt O76074); assay: Inhibition of phosphodiesterase 5 in vitro; format: biochemical
reported.endpoint: PDE5 activity (in words)

Reference set (6 entries):
>  <compound>
Cc1ccc(-c2cc(C(F)(F)F)nn2-c2ccc(S(N)(=O)=O)cc2)cc1 [Celecoxib]

>  <reported>
in the μM range

$$$$
>  <compound>
COc1ccc2c(c1)c(CC(=O)O)c(C)n2C(=O)c1ccc(Cl)cc1 [Indometacin]

>  <reported>
only minor effects

$$$$
>  <compound>
O=C(O)Cc1ccccc1Nc1c(Cl)cccc1Cl [Diclofenac]

>  <reported>
only minor effects

$$$$
>  <compound>
CS(=O)(=O)Nc1cc2c(cc1Sc1ccc(F)cc1F)C(=O)CC2 [L-745337]

>  <reported>
in the μM range

$$$$
>  <compound>
CS(=O)(=O)Nc1ccc([N+](=O)[O-])cc1Oc1ccccc1 [Nimesulide, 4′-nitro-2′-phenoxymethansulfonamide]

>  <reported>
in the μM range

$$$$
>  <compound>
CS(=O)(=O)Nc1cc2c(cc1Oc1ccc(F)cc1F)C(=O)CC2 [CGP28238]

>  <reported>
in the μM range

$$$$

Short answer for CC(=O)Oc1ccccc1C(=O)O [ASS, 2-(acetyloxy)benzoic acid] : PDE5 activity (in words) was only minor effects

* * *

assay: Diclofenac induced blood loss in mice (fecal hemoglobin); assay type: in vivo; conditions: male, NMRI, mouse, feces, oral; mice, 3-100 mg/kg p.o., spectrophotometric determination of fecal hemoglobin; read-out: ED50 of induced gastrointestinal bleeding
reported.endpoint: ED50 at 24 h (mg/kg)
Quick note: give the figure in mg/kg, leave out the unit.

ED50 at 24 h recorded for this molecule, O=C(O)Cc1ccccc1Nc1c(Cl)cccc1Cl , is 56

* * *

target: partially purified or recombinant PDE5 (Homo sapiens); test: Inhibition of phosphodiesterase 5 in vitro; assay type: biochemical
reported.endpoint: IC50 PDE5 (µM)

Solved entries:
>  <compound>
CS(=O)(=O)Nc1ccc([N+](=O)[O-])cc1Oc1ccccc1 [Nimesulide, 4′-nitro-2′-phenoxymethansulfonamide]

>  <IC50 PDE5 / µM>
25

$$$$
>  <compound>
CS(=O)(=O)Nc1cc2c(cc1Sc1ccc(F)cc1F)C(=O)CC2

>  <IC50 PDE5 / µM>
24

$$$$

A: COc1ccc2c(c1)c(CC(=O)O)c(C)n2C(=O)c1ccc(Cl)cc1
B: CS(=O)(=O)Nc1cc2c(cc1Oc1ccc(F)cc1F)C(=O)CC2
Ask: Endpoint returns whichever of A and B has the numerically higher IC50 PDE5. Answer format: the label of the selected item.
Reply: A
(A: 62 µM, B: 14 µM)

* * *

test system: partially purified or recombinant PDE4; test: Inhibition of phosphodiesterase 4 in vitro; format: biochemical
reported.endpoint: PDE4 activity (in words)

These solved cases illustrate the format of a correct answer.
>  <compound>
CS(=O)(=O)Nc1cc2c(cc1Sc1ccc(F)cc1F)C(=O)CC2 [L-745337]

>  <reported>
in the μM range

$$$$
>  <compound>
COc1ccc2c(c1)c(CC(=O)O)c(C)n2C(=O)c1ccc(Cl)cc1 [Indometacin]

>  <reported>
only minor effects

$$$$
>  <compound>
Cc1ccc(-c2cc(C(F)(F)F)nn2-c2ccc(S(N)(=O)=O)cc2)cc1 [Celecoxib]

>  <reported>
in the μM range

$$$$
>  <compound>
O=C(O)Cc1ccccc1Nc1c(Cl)cccc1Cl [Diclofenac]

>  <reported>
only minor effects

$$$$
>  <compound>
CC(=O)Oc1ccccc1C(=O)O [ASS, 2-(acetyloxy)benzoic acid]

>  <reported>
only minor effects

$$$$

PDE4 activity (in words) measured on CS(=O)(=O)Nc1cc2c(cc1Oc1ccc(F)cc1F)C(=O)CC2 [CGP28238] = in the μM range

In plain terms, CS(=O)(=O)Nc1ccc([N+](=O)[O-])cc1Oc1ccccc1 [Nimesulide, 4′-nitro-2′-phenoxymethansulfonamide] has a documented PDE4 activity (in words) of in the μM range

* * *

target: partially purified or recombinant PDE4; test: Inhibition of phosphodiesterase 4 in vitro
pIC50: −log10 of the molar value.
Recorded pIC50 by entry

Study these solved cases before continuing.
>  <smiles.notation>
CC(=O)Oc1ccccc1C(=O)O

>  <tested.on>
partially purified or recombinant PDE4

>  <reported>
< 4.00

$$$$
>  <smiles.notation>
O=C(O)Cc1ccccc1Nc1c(Cl)cccc1Cl

>  <tested.on>
partially purified or recombinant PDE4

>  <reported>
< 4.00

$$$$

Record COc1ccc2c(c1)c(CC(=O)O)c(C)n2C(=O)c1ccc(Cl)cc1 / partially purified or recombinant PDE4, pIC50 recorded as ~4.00

Provenance of the data: patent US8242146B2
